The reported measurements were obtained from ChEMBL document CHEMBL1155986.

# test: Inhibition of HCV NS5B deltaC21 polymerase assessed as [3H]GTP incorporation after 3 hrs by scintillation proximity assay
# Set-up: species or system Hepacivirus hominis
resultType: IC50

Here are 4 compounds together with their reported answers.
>  <smilesData>
O=C(O)c1cc2[nH]c(-c3ccc(Oc4cccc(Cl)c4)cc3)c(C3CCCCC3)c(=O)n2n1

>  <IC50>
Not Active

$$$$
>  <smilesData>
O=C(O)c1cc2[nH]c(-c3ccc(Oc4ccccc4)cc3)c(C3CCCCC3)c(=O)n2n1

>  <IC50>
Not Active

$$$$
>  <smilesData>
COc1cccc(Oc2ccc(-c3[nH]c4cc(C(=O)O)nn4c(=O)c3C3CCCCC3)cc2)c1

>  <IC50>
Not Active

$$$$
>  <smilesData>
COc1ccc(-c2[nH]c3cc(C(=O)O)nn3c(=O)c2C2CCCCC2)cc1

>  <IC50>
Not Active

$$$$

Now for a further compound.
Query block: Find the measured IC50 of O=C(O)c1cc2[nH]c(-c3ccc(Oc4cccc(C(F)(F)F)c4)cc3)c(C3CCCCC3)c(=O)n2n1 and report it.
Result block: Not Active

----------
Recorded measurements of log10 of IC50, one per entry
# test: Inhibition of HCV NS5B deltaC55 polymerase assessed as [3H]GTP incorporation after 50 min by scintillation proximity assay
# Design: species or system Hepacivirus hominis
Transform log10 | Measure IC50 | Unit µM

Here are 5 compounds together with their reported answers.
>  <smilesData>
O=C(O)c1cc2[nH]c(-c3ccc(OCc4ccccc4)cc3)c(CCCc3ccccc3)c(=O)n2n1

>  <log10 of IC50>
0.77

$$$$
>  <smilesData>
COc1cccc(COc2ccc(-c3[nH]c4cc(C(=O)O)nn4c(=O)c3C3CCCCC3)cc2)c1

>  <log10 of IC50>
0.08

$$$$
>  <smilesData>
CC(C)=CCCc1c(-c2ccc(OCc3ccccc3)cc2)[nH]c2cc(C(=O)O)nn2c1=O

>  <log10 of IC50>
1.00

$$$$
>  <smilesData>
O=C(O)c1cc2[nH]c(-c3ccc(OCc4ccccc4)cc3)c(CC3CCCCC3)c(=O)n2n1

>  <log10 of IC50>
0.58

$$$$
>  <smilesData>
CC(C)Cc1c(-c2ccc(OCc3ccccc3)cc2)[nH]c2cc(C(=O)O)nn2c1=O

>  <log10 of IC50>
1.18

$$$$

Query block: Find the measured log10 of IC50 of O=C(O)c1cc2[nH]c(-c3ccc(Oc4cccc(C(F)(F)F)c4)cc3)c(C3CCCCC3)c(=O)n2n1 and report it.
Result block: -0.03

Query block: Find the measured log10 of IC50 of COc1ccc(-c2[nH]c3cc(C(=O)O)nn3c(=O)c2C2CCCCC2)cc1 and report it.
Result block: 0.59

Query block: Find the measured log10 of IC50 of O=C(O)c1cc2[nH]c(-c3ccc(OCc4ccccc4)cc3)c(CCC3CCCCC3)c(=O)n2n1 and report it.
Result block: -0.22

Query block: Find the measured log10 of IC50 of O=C(O)c1cc2[nH]c(-c3ccc(Cc4ccccc4)cc3)c(C3CCCCC3)c(=O)n2n1 and report it.
Result block: 0.60

----------
# test: Inhibition of HCV NS5B deltaC55 polymerase assessed as [3H]GTP incorporation after 50 min by scintillation proximity assay
# Design: species or system Hepacivirus hominis
resultType: IC50

Here are 5 molecules together with their reported answers.
>  <molecule>
O=C(O)c1cc2[nH]c(-c3cccs3)c(C3CCCCC3)c(=O)n2n1

>  <IC50>
6.4 µM

$$$$
>  <molecule>
O=C(O)c1cc2[nH]c(-c3ccc(OCc4ccccc4)cc3)c(Cc3ccccc3)c(=O)n2n1

>  <IC50>
8.9 µM

$$$$
>  <molecule>
C=CCCc1c(-c2ccc(OCc3ccccc3)cc2)[nH]c2cc(C(=O)O)nn2c1=O

>  <IC50>
15 µM

$$$$
>  <molecule>
C=CCc1c(-c2ccc(OCc3ccccc3)cc2)[nH]c2cc(C(=O)O)nn2c1=O

>  <IC50>
> 50 µM

$$$$
>  <molecule>
O=C(O)c1cc2[nH]c(-c3ccc(OCc4ccccc4)cc3)c(CC3CCCO3)c(=O)n2n1 (centres undefined)

>  <IC50>
> 12.5 µM

$$$$

Query block: Find the measured IC50 of O=C(O)c1cc2[nH]c(-c3cccc(F)c3)c(C3CCCCC3)c(=O)n2n1 and report it.
Result block: 2.3 µM

Query block: Find the measured IC50 of O=C(O)c1cc2[nH]c(-c3ccc(Oc4ccccc4)cc3)c(C3CCCCC3)c(=O)n2n1 and report it.
Result block: 6.3 µM

Query block: Find the measured IC50 of O=C(O)c1cc2[nH]c(-c3ccc(OCc4cccc(OC(F)(F)F)c4)cc3)c(C3CCCCC3)c(=O)n2n1 and report it.
Result block: 2.2 µM

Query block: Find the measured IC50 of O=C(O)c1cc2[nH]c(-c3ccc(OCc4ccccc4)cc3)c(CC3CCC3)c(=O)n2n1 and report it.
Result block: 8.8 µM
